Parameter: inhibition. Scope: all listed entries.
Tested target: Replicase polyprotein 1ab (Severe acute respiratory syndrome coronavirus 2) (UniProt P0DTD1)
Experiment summary: Inhibition of C-terminal His tagged SARS CoV-2 main protease transfected in Escherichia coli BL21 (DE3) using 2-Abz-Ser-AlaVal-Leu-Gln-Ser-Gly-Tyr(3-NO2)-Arg-OH as substrate at 50 uM preincubated for 15 mins followed by substrate addition and measured after 15 mins by FRET assay relative to control
Condition description: time 30.0 min
Please reply with the bare figure in % and do not write the unit itself.

INSERT INTO results (molecule, measured_value) VALUES
  ('O=C(Nc1ccc2c(c1)B(O)OC2)c1cccc(OCc2ccc(Cl)cc2)c1', 43.5),
  ('O=C(NCc1ccc(B(O)O)cc1)c1cccc(OCc2ccccc2)c1', 18.5),
  ('CC(C)(C)NC(=O)N[C@H](C(=O)N1C[C@H]2[C@@H]([C@H]1C(=O)NC(CC1CCC1)C(=O)C(N)=O)C2(C)C)C(C)(C)C (stereo partly specified)', 70.8);

Proceeding to the next molecule to report its inhibition.
Documented inhibition of "O=C(Nc1ccc2c(c1)B(O)OC2)c1cccc(NCc2ccccc2)c1" : 46.9

====

Tested on: HeLa
Experiment summary: Cytotoxicity against human HeLa cells expressing luciferase-based DENV-2 protease reporter system assessed as reduction in cell viability by celltiter-blue assay
Format: toxicity
Parameter: CC50. Scope: all listed entries.

Recorded CC50, per entry:
INSERT INTO measurements (molecule, measured_value) VALUES
  ('O=[N+]([O-])c1ccc2c(c1)B(O)OC2', '> 100 µM'),
  ('O=C(Nc1ccc2c(c1)B(O)OC2)OCc1ccccc1', '> 50 µM'),
  ('O=C(Nc1ccc2c(c1)B(O)OC2)c1ccc(C(F)(F)F)cc1', '> 50 µM');

Documented CC50 of "O=C(Nc1ccc2c(c1)B(O)OC2)c1ccc(OCc2ccccc2)cc1" : > 50 µM

Documented CC50 of "O=C(Nc1cccc(B(O)O)c1)c1cccc(OCc2ccccc2)c1" : > 50 µM

Documented CC50 of "O=C(Nc1ccc2c(c1)B(O)OC2)c1ccc(Oc2ccccc2)cc1" : > 50 µM

====

Tested target: Genome polyprotein (dengue virus type 2)
Experiment summary: Inhibition of full length DENV2 NS2B-NS3 protease in human HeLa cells expressing luciferase reporter gene at 12.5 uM incubated for 24 hrs by luminescence analysis relative to control
Format: cell-based
Assay endpoint: inhibition (%)
Please reply with the bare figure in % and do not write the unit itself.

Recorded inhibition, per entry:
INSERT INTO assay_data (compound, tested_target, assay_endpoint, units_of_measure, measured_value) VALUES
  ('O=C(Nc1ccc2c(c1)B(O)OC2)c1cccc(Oc2ccccc2)c1', 'Genome polyprotein (dengue virus type 2)', 'inhibition', '%', 77.4),
  ('O=C(NCc1ccc(B(O)O)cc1)c1cccc(OCc2ccccc2)c1', 'Genome polyprotein (dengue virus type 2)', 'inhibition', '%', 29.3);

Documented inhibition of "O=C(Nc1cccc(C(=O)Nc2ccc3c(c2)B(O)OC3)c1)c1ccccc1" : 51.5

Documented inhibition of "Cc1cccc(COc2cccc(C(=O)Nc3ccc4c(c3)B(O)OC4)c2)c1" : 85.2

Documented inhibition of "O=C(Nc1ccc2c(c1)B(O)OC2)c1cccc(NCc2ccccc2)c1" : 73.6
